# System: biotinyl-Ile-oxazolone
# Test details: self-aminoacylation, catalytic enhancement (BIO) (fold over background); higher = more active; k-Seq, kA / k0A0; sequences stand for … in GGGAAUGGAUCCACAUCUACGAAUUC…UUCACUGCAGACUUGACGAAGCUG
Variants at the floor of the assay were thinned out.
Some sequences, each annotated with its measured self-aminoacylation.
Readout label: self-aminoacylation

INSERT INTO assay_data (chain_sequence, readout_label, assay_result) VALUES
  ('CCACACUUCGCGCAAUCGGUC [Fam1B.1 aminoacylation ribozyme variant]', 'self-aminoacylation', 2.21),
  ('AUUGCCCUGGUCAUCGAGUAA [Fam2.1 aminoacylation ribozyme variant]', 'self-aminoacylation', 3.56),
  ('CUACUUCAGGCAAUCGGUCUG [Fam1A.1 aminoacylation ribozyme variant]', 'self-aminoacylation', 0.94),
  ('CUACUUCAAACAAUCGGUCAU [Fam1A.1 aminoacylation ribozyme variant]', 'self-aminoacylation', 0.892),
  ('AUUACCCUGGCCACCGAGUGA [Fam2.1 aminoacylation ribozyme variant]', 'self-aminoacylation', 2.92),
  ('AACUUUGAUAAUAGUCGCAAG [Fam3.1 aminoacylation ribozyme variant]', 'self-aminoacylation', 1.71),
  ('AUUAUCCUGGUCAUCGGGUGA [Fam2.1 aminoacylation ribozyme variant]', 'self-aminoacylation', 7.1),
  ('CUACUUCAAAGAAUCGGUGUG [Fam1A.1 aminoacylation ribozyme variant]', 'self-aminoacylation', 0.994),
  ('AGGACCCUGGUCAUCGAGUGA [Fam2.1 aminoacylation ribozyme variant]', 'self-aminoacylation', 4.59),
  ('AUCCACCUAGAUCAUCGGGUG [Fam2.2 aminoacylation ribozyme variant]', 'self-aminoacylation', 3.37),
  ('AUUCACCUAGGUUAUCGGGUA [Fam2.2 aminoacylation ribozyme variant]', 'self-aminoacylation', 2.02),
  ('AUUACCCUGGUCAUCGCAUGA [Fam2.1 aminoacylation ribozyme variant]', 'self-aminoacylation', 2.01),
  ('ACUCACCUUGGUCAUCGGGUG [Fam2.2 aminoacylation ribozyme variant]', 'self-aminoacylation', 4.9),
  ('AUUACCCUGGUCAUCGAUUGU [Fam2.1 aminoacylation ribozyme variant]', 'self-aminoacylation', 0.753),
  ('CCAGACGUCAAGCAAUCGGUC [Fam1B.1 aminoacylation ribozyme variant]', 'self-aminoacylation', 1.24),
  ('CCACACUUCGAGCAAUCGGUU [Fam1B.1 aminoacylation ribozyme variant]', 'self-aminoacylation', 1.41),
  ('AUUUACCUACGUCAUCGGGUG [Fam2.2 aminoacylation ribozyme variant]', 'self-aminoacylation', 2.56),
  ('CCACACUUCAACCAAUCGGUA [Fam1B.1 aminoacylation ribozyme variant]', 'self-aminoacylation', 1.1),
  ('AGUACCCUGGUCAUCGAGUGU [Fam2.1 aminoacylation ribozyme variant]', 'self-aminoacylation', 5.14),
  ('AUUACACUGGUCAUUGAGUGA [Fam2.1 aminoacylation ribozyme variant]', 'self-aminoacylation', 3.39),
  ('AUUACCCUUGGCAUCGAGUGA [Fam2.1 aminoacylation ribozyme variant]', 'self-aminoacylation', 2.75),
  ('CCAUACUUCAAGCAAUCGAUC [Fam1B.1 aminoacylation ribozyme variant]', 'self-aminoacylation', 0.666),
  ('AUUCACCUAGGUACUCGGGUG [Fam2.2 aminoacylation ribozyme variant]', 'self-aminoacylation', 2.15),
  ('CUAGUUCAAACAAACGGUCUG [Fam1A.1 aminoacylation ribozyme variant]', 'self-aminoacylation', 0.913),
  ('AUUCGCCUAGGUCAACGGGUG [Fam2.2 aminoacylation ribozyme variant]', 'self-aminoacylation', 2.76),
  ('AUUCACCUAGAGCAUCGGGUG [Fam2.2 aminoacylation ribozyme variant]', 'self-aminoacylation', 1.76),
  ('CUACUUCUAACCAUCGGUCUG [Fam1A.1 aminoacylation ribozyme variant]', 'self-aminoacylation', 0.703),
  ('AUUCACCUACGGCAUCGGGUG [Fam2.2 aminoacylation ribozyme variant]', 'self-aminoacylation', 2.29),
  ('CCACACUUCAAGCAAUCGGGA [Fam1B.1 aminoacylation ribozyme variant]', 'self-aminoacylation', 1.55),
  ('CCACAUUUCAAGCAAUCAGUC [Fam1B.1 aminoacylation ribozyme variant]', 'self-aminoacylation', 1),
  ('AUUCGUCUAGGUCAUCGGGUG [Fam2.2 aminoacylation ribozyme variant]', 'self-aminoacylation', 4.9),
  ('CCACACUUCUAGCAAUCGAUC [Fam1B.1 aminoacylation ribozyme variant]', 'self-aminoacylation', 0.556),
  ('AUUACCAUGGUCAUCGCGUGA [Fam2.1 aminoacylation ribozyme variant]', 'self-aminoacylation', 10.3),
  ('CCACACUUCAAGCAAUCGGGU [Fam1B.1 aminoacylation ribozyme variant]', 'self-aminoacylation', 1.51),
  ('AUUACCCUGGUCAUCGAGUAA [Fam2.1 aminoacylation ribozyme variant]', 'self-aminoacylation', 8.7);
